// compounds with reported IC50 on Poly [ADP-ribose] polymerase tankyrase-1 (Homo sapiens, UniProt O95271), multi-publication
API: label(entry) gives TRUE if the entry's IC50 is strictly smaller than 0.04 µM; on equality or larger values it gives FALSE.

>>> df
                                   compound  qualitative_label
0  Cn1ccc2c(=O)[nH]c(N3CCN(c4ccccc4C#N)CC3)nc21              FALSE
1  CC(C)C1Cc2[nH]c(=O)c3cc(Cl)ccc3c2CO1 (racemic)              FALSE
2  CCN(Cc1nc2c(c(=O)[nH]1)COCC2)C(=O)CCc1ccccc1              FALSE
3  CC1(C2Cc3[nH]c(=O)c4ccccc4c3CO2)CCCCC1 (racemic)               TRUE
4  CN1CCN(c2ccc3ncc(C(=O)N[C@H]4CC[C@H](C(=O)Nc5ccc(F)cc5Cl)CC4)n3n2)CC1              FALSE
5  CC(C)Oc1ccc(C(=O)C2CCN(CC(=O)NCc3nc4c(c(=O)[nH]3)COCC4)CC2)cc1               TRUE
